Just for reference, patent US20260242478A1 is where these values come from.

Recorded Phage binding ELISA, Anti-CD28 Fab signal for the following binders
Molecular target: T1, Anti-CD28 Fab (SEQ ID NOs: 696, 697)
T1 construct: Biotinylated and captured on neutravidin coated plates in the phage ELISA
T1 sequence (VH, as listed by the source, chain 1 of 2): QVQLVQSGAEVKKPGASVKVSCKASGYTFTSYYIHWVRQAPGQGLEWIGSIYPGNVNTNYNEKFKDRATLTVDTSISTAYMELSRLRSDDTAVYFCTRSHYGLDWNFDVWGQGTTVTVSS
T1 sequence (VL, as listed by the source, chain 2 of 2): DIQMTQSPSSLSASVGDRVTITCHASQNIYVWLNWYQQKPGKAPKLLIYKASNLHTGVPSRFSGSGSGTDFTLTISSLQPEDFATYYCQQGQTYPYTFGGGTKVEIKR
Assay: phage ELISA; biotinylated anti-CD28 Fab on neutravidin plate, clonal phage supernatant, anti-M13 HRP detection;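 also: before phage addition, wells were pretreated with either CD28 antigen in blocking buffer or only blocking buffer, and phage was added without an intervening wash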

// known answers, use as guide
binder	valueObserved
TCSAGFSYKWPWCW [Phage-1564]	1.45
TCSAGATYMWPACF [Phage-1567]	1.44
TCSAGATYAWPACF [Phage-1568]	1.44
WCGVGMDWRWPECL [Phage-1569]	1.44
SCSAGALWKWPVCF [Phage-1563]	1.45
SCSAGAMYQWPLCF [Phage-1565]	1.44

QUERY: For the binder shown here, TCAAGAHYSWPFCM [Phage-1575] , give the reported Phage binding ELISA, Anti-CD28 Fab signal.
RESULT: 1.42
